- Test details: 4-week repeat-dose toxicity/TK study in dogs
- Format: in vivo, beagle dogs
- Study conditions: male, beagle, dog, plasma, po, 200 mg/kg/day, day 28, PO 200 mg/kg/day, M
Quantity name: Tmax (h)
Answers are plain numbers, in h.

Reported Tmax of C[C@]12CC[C@@H]3c4ccc(B(O)O)cc4C[C@@H](CCCCCCCCC[S+]([O-])CCCC(F)(F)C(F)(F)F)[C@H]3[C@@H]1CC[C@@H]2O (stereo partly shown) [ZB716, fulvestrant-3-boronic acid] : 2

---

- Test details: 4-week repeat-dose toxicity/TK study in rats
- Type: in vivo, Sprague Dawley rats
- Study conditions: female, Sprague Dawley (Crl: CD (SD)), rat, plasma, po, 400 mg/kg/day, day 1, PO 400 mg/kg/day, Female
Quantity name: AUC(0-t) (µg·h/mL)
Numbers only, in µg·h/mL.

Reported AUC(0-t) of C[C@]12CC[C@@H]3c4ccc(B(O)O)cc4C[C@@H](CCCCCCCCC[S+]([O-])CCCC(F)(F)C(F)(F)F)[C@H]3[C@@H]1CC[C@@H]2O (stereo partly shown) [ZB716, fulvestrant-3-boronic acid] : 121

---

- Assayed system: CYP2C19 (Homo sapiens, UniProt P33261)
- Sequence (P33261 whole entry): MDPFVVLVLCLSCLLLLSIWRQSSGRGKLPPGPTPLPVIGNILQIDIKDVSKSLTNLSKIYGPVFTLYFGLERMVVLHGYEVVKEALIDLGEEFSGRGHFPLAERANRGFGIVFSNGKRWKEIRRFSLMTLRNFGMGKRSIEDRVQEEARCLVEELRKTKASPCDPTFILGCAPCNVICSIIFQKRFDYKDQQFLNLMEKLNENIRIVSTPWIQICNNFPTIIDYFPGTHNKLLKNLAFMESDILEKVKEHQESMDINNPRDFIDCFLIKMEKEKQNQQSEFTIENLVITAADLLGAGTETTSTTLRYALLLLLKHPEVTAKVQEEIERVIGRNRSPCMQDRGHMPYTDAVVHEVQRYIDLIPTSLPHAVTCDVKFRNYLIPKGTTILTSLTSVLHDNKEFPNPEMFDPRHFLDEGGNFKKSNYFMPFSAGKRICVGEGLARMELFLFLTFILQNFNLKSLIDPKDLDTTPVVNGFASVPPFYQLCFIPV
Quantity name: IC50 (nM)
Give bare numbers, in nM.

Reported IC50 of C[C@]12CC[C@@H]3c4ccc(B(O)O)cc4C[C@@H](CCCCCCCCC[S+]([O-])CCCC(F)(F)C(F)(F)F)[C@H]3[C@@H]1CC[C@@H]2O (stereo partly shown) [ZB716, fulvestrant-3-boronic acid] : 2200

---

- System: CYP1A2
- Test details: CYP induction (enzyme activity) in cryopreserved human hepatocytes, CYP1A2
- Study conditions: human, plated cryopreserved human hepatocytes, Fold Induction, donor one, 50 µM
Quantity name: fold induction at 72 h, 50 µM

Reported fold induction at 72 h, 50 µM of COc1ccc2[nH]c([S+]([O-])Cc3ncc(C)c(OC)c3C)nc2c1 (stereo not shown) [Omeprazole, omeprazole, reference compound] : 9.28

---

- Test details: 4-week repeat-dose toxicity/TK study in rats
- Format: in vivo, Sprague Dawley rats
- Study conditions: male, Sprague Dawley (Crl: CD (SD)), rat, plasma, po, 100 mg/kg/day, day 28, PO 100 mg/kg/day, Male
Quantity name: AUC(0-t)

Reported AUC(0-t) of C[C@]12CC[C@@H]3c4ccc(B(O)O)cc4C[C@@H](CCCCCCCCC[S+]([O-])CCCC(F)(F)C(F)(F)F)[C@H]3[C@@H]1CC[C@@H]2O (stereo partly shown) : 20100 ng·h/mL

---

- Test details: Single-dose PK and bioavailability of ZB716 in rats
- Type: in vivo
- Study conditions: female, Sprague Dawley, rat, plasma; single dose, PO 400 mg/kg/day, F; read-out: Tmax (median)
Quantity name: Tmax

Reported Tmax of C[C@]12CC[C@@H]3c4ccc(B(O)O)cc4C[C@@H](CCCCCCCCC[S+]([O-])CCCC(F)(F)C(F)(F)F)[C@H]3[C@@H]1CC[C@@H]2O (stereo partly shown) : 1 h

---

- Test details: Single-dose PK and bioavailability of ZB716 in rats
- Assay type: in vivo
- Study conditions: female, Sprague Dawley, rat, plasma; single dose, PO 6 mg/kg/day, F
Quantity name: AUC(0-t) (ng·h/mL)
Give bare numbers, in ng·h/mL.

Reported AUC(0-t) of C[C@]12CC[C@@H]3c4ccc(B(O)O)cc4C[C@@H](CCCCCCCCC[S+]([O-])CCCC(F)(F)C(F)(F)F)[C@H]3[C@@H]1CC[C@@H]2O (stereo partly shown) : 1160

---

- Test system: CYP1A2
- Test details: CYP induction (enzyme activity) in cryopreserved human hepatocytes, CYP1A2
- Study conditions: human, plated cryopreserved human hepatocytes, Fold Induction, donor two, 15 µM
Quantity name: fold induction at 72 h, 15 µM
Numbers only.

Reported fold induction at 72 h, 15 µM of C[C@]12CC[C@@H]3c4ccc(B(O)O)cc4C[C@@H](CCCCCCCCC[S+]([O-])CCCC(F)(F)C(F)(F)F)[C@H]3[C@@H]1CC[C@@H]2O (stereo partly shown) [ZB716, fulvestrant-3-boronic acid] : 2.77

---

- Test details: Single-dose PK and bioavailability in dogs
- Type: in vivo
- Study conditions: male, beagle, dog, plasma; single dose, IV 2 mg/kg/day, M
Quantity name: Cmax (µg/mL)
One number for each entry, in µg/mL.

Reported Cmax of C[C@]12CC[C@@H]3c4ccc(B(O)O)cc4C[C@@H](CCCCCCCCC[S+]([O-])CCCC(F)(F)C(F)(F)F)[C@H]3[C@@H]1CC[C@@H]2O (stereo partly shown) : 2.16

---

- Test details: 7-day repeated-dose PK in rats
- Assay type: in vivo, Sprague Dawley rats
- Study conditions: female, Sprague Dawley (Crl: CD (SD)), rat, plasma, po, 400 mg/kg/day, day 1, PO 400 mg/kg/day, F
Quantity name: Cmax (ng/mL)
One number for each entry, in ng/mL.

Reported Cmax of C[C@]12CC[C@@H]3c4ccc(B(O)O)cc4C[C@@H](CCCCCCCCC[S+]([O-])CCCC(F)(F)C(F)(F)F)[C@H]3[C@@H]1CC[C@@H]2O (stereo partly shown) : 2770

---

- Test details: 7-day repeated-dose TK in dogs
- Type: in vivo
- Study conditions: female, beagle, dog, plasma, po, 200 mg/kg/day, day 7, PO 200 mg/kg/day, F
- Method: The TK of ZB716 was investigated following once-daily administration via oral gavage for 7 consecutive days. Beagle dogs (n = 1/sex) were orally administered ZB716 at dose levels of 100 and 200 mg/kg/day. […] Five microliters of diluted supernatant was injected into the LC–MS/MS system (Shimadzu LC30AD HPLC system with a SynergiTM 4 μm Fusion-RP 80 Å (50 × 2 mm) column using gradient elution and a Triple Quad 5500 mass spectrometer) for quantitative analysis. […]
Quantity name: Tmax (h)
Numbers only, in h.

Reported Tmax of C[C@]12CC[C@@H]3c4ccc(B(O)O)cc4C[C@@H](CCCCCCCCC[S+]([O-])CCCC(F)(F)C(F)(F)F)[C@H]3[C@@H]1CC[C@@H]2O (stereo partly shown) [ZB716, fulvestrant-3-boronic acid] : 2

---

- Test details: Bidirectional permeability across Caco-2 cell monolayers
- Format: in vitro ADME
- Study conditions: human; Caco-2, 5 μM
Kindly supply the reported efflux ratio at 120 min, 5 μM values for the records listed here.
Give bare numbers.

# Molecule, Quantity name, Value
records = [
    ("C[C@H]1O[C@@H](O[C@H]2[C@@H](O)C[C@H](O[C@H]3[C@@H](O)C[C@H](O[C@H]4CC[C@@]5(C)[C@H](CC[C@@H]6[C@@H]5C[C@@H](O)[C@]5(C)[C@@H](C7=CC(=O)OC7)CC[C@]65O)C4)O[C@@H]3C)O[C@@H]2C)C[C@H](O)[C@@H]1O [Digoxin, digoxin, reference compound]", "efflux ratio at 120 min, 5 μM", 21.2),
]

Continue with the next molecule.
Reported efflux ratio at 120 min, 5 μM of Nc1cc(N2CCCCC2)nc(N)[n+]1[O-] [Minoxidil, minoxidil, reference compound] : 1.15

---

- Test details: Bidirectional permeability across Caco-2 cell monolayers
- Assay type: in vitro ADME
- Study conditions: human, Caco-2, Caco-2, 15 μM; read-out: Recovery B to A
- Method: The bidirectional permeability and absorption mechanism of ZB716 was evaluated across Caco-2 cell monolayers. The apical-to-basolateral (A–B) and basolateral-to-apical (B–A) transport of ZB716 in HBSS (25 mM HEPES) with 1% BSA was measured across Caco-2 cell monolayers. […] All incubations were performed in triplicate, and the integrity of the cell monolayers was confirmed using the marker Lucifer yellow. The slope, k, was determined by linear using the following equation: […]
Quantity name: recovery at 120 min, 15 μM (%)
One number for each entry, in %.

Reported recovery at 120 min, 15 μM of C[C@]12CC[C@@H]3c4ccc(B(O)O)cc4C[C@@H](CCCCCCCCC[S+]([O-])CCCC(F)(F)C(F)(F)F)[C@H]3[C@@H]1CC[C@@H]2O (stereo partly shown) : 84.2

---

- Test details: Single-dose PK and bioavailability in dogs
- Format: in vivo
- Study conditions: female, beagle, dog, plasma; single dose, IV 2 mg/kg/day, F
Quantity name: Tmax (min)
Give bare numbers, in min.

Reported Tmax of C[C@]12CC[C@@H]3c4ccc(B(O)O)cc4C[C@@H](CCCCCCCCC[S+]([O-])CCCC(F)(F)C(F)(F)F)[C@H]3[C@@H]1CC[C@@H]2O (stereo partly shown) : 5

---

- Test details: 4-week repeat-dose toxicity/TK study in dogs
- Type: in vivo, beagle dogs
- Study conditions: male, beagle, dog, plasma, po, 100 mg/kg/day, day 28, PO 100 mg/kg/day, M
- Protocol: The TK of ZB716 was investigated in a 4-week repeat-dose toxicity study in dogs. […] The plasma concentration of ZB716 was measured at various times up through to 24 h post-dose on days 1 and 28. […] Five microliters of diluted supernatant was injected into the LC–MS/MS system (Shimadzu LC30AD HPLC system with a SynergiTM 4 μm Fusion-RP 80 Å (50 × 2 mm) column using gradient elution and a Triple Quad 5500 mass spectrometer) for quantitative analysis. […]
Quantity name: AUC(0-t) (µg·h/mL)
Answers are plain numbers, in µg·h/mL.

Reported AUC(0-t) of C[C@]12CC[C@@H]3c4ccc(B(O)O)cc4C[C@@H](CCCCCCCCC[S+]([O-])CCCC(F)(F)C(F)(F)F)[C@H]3[C@@H]1CC[C@@H]2O (stereo partly shown) : 12.4

The reported measurements were obtained from paper PMC8400955.
